The reported numbers originate from the supplement of paper PMC9135407.

Test system: primary human hepatic stellate cells (donor 1)
Assay: scaled lipid accumulation score (0 = DMSO-like, 1 = nortriptyline-like); higher = stronger HSC inactivation (lipid re-accumulation), active = hit call of the paper
Details: library stock concentration: 10 mM; 48 h
Out of some 5,800 compounds screened, about 620 (11%) showed activity.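 How the source made its calls: active = score above a cut-off or among the top three wells of a plate; in these data no inactive exceeds 0.85.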 Many of the other results were omitted from the sample, so actives are more common in it than they were.
Form entry, call: pick from active, inactive

{"MOLECULE": "Fc1ccc(C(OCCCc2cnc[nH]2)c2ccc(F)cc2)cc1", "CAT": "inactive"}
{"MOLECULE": "c1([C@]2(C(=O)OC)c3c(c4c(cccc4)[nH]3)CN(CC5C2)CC(CC)=C5)cc6c(N(C)[C@]7([H])[C@]6(CC8)[C@]([H])(N89)[C@@](CC)(C=CC9)[C@@H](OC(=O)C)[C@]7(O)C(=O)OC)cc1OC.C(=O)(O)[C@H](O)[C@@H](O)C(=O)O.C(=O)(O)[C@H](O) (stereo partly drawn) [Vinorelbine Tartrate]", "CAT": "active"}

Turning now to a further record.
Asked: Recorded test call requested for CCC1=C[C@H]2CN(C1)Cc1c([nH]c3ccccc13)[C@@](C(=O)OC)(c1cc3c(cc1OC)N(C)[C@H]1[C@@](O)(C(=O)OC)[C@H](OC(C)=O)[C@]4(CC)C=CCN5CC[C@]31[C@@H]54)C2.O=C(O)C(O)C(O)C(=O)O
Given back: active
